target: α4β2 nAChR (Homo sapiens (Human), UniProt P17787+P43681); format: binding; conditions: ratio of Ki values
Sequence (P43681 29-627 limits assumed): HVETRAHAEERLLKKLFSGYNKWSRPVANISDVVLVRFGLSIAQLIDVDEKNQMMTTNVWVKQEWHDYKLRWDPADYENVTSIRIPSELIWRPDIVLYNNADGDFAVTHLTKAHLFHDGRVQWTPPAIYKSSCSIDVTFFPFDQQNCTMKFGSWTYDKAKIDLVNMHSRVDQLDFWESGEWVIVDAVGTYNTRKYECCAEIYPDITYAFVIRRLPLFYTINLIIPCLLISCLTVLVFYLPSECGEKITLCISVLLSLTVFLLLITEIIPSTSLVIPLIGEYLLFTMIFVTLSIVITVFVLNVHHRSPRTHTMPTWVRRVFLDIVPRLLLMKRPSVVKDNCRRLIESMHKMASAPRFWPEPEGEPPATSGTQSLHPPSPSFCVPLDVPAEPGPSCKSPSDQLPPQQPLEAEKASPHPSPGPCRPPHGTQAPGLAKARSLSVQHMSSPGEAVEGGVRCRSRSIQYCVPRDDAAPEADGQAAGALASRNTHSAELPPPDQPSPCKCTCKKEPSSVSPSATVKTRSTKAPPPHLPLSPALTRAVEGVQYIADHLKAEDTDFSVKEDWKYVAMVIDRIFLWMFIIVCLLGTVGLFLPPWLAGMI
Sequence (P17787 26-502 limits assumed): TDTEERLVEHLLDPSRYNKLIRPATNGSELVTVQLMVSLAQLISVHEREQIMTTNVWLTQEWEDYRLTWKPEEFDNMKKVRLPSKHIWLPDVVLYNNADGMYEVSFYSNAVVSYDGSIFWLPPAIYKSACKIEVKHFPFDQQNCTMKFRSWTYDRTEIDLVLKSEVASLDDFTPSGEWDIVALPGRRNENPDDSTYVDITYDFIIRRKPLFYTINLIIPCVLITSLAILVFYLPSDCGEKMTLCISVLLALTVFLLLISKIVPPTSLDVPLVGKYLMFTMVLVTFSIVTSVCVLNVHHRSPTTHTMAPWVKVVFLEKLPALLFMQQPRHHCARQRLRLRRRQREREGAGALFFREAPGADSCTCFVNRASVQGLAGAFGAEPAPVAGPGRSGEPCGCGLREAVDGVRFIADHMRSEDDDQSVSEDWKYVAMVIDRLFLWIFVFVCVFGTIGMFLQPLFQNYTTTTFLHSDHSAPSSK
Could you please report measured Ratio α3β4/α4β2 for the items listed next?
Please give only the number in your answer, with no unit.

Return reported Ratio α3β4/α4β2 for target or system α4β2 nAChR (Homo sapiens (Human), UniProt P17787+P43681), item CN(Cc1cc2n(c(=O)c1)CC1CNC[C@@H]2C1)Cc1cc2n(c(=O)c1)CC1CNC[C@@H]2C1 (stereo in doubt) [Compound 156, Methylamino bis(cytisine) derivative] .
207.3

State Ratio α3β4/α4β2 on α4β2 nAChR (Homo sapiens (Human), UniProt P17787+P43681). Entry: Cl.O=c1ccccn1-c1cc2n(c(=O)c1)CC1CNC[C@@H]2C1 (single isomer, unassigned; (-)) [Compound 108, (−)4-(N-2-pyridone)cytisine]
90.3

State Ratio α3β4/α4β2 (α4β2 nAChR (Homo sapiens (Human), UniProt P17787+P43681)) of CNCc1cc2n(c(=O)c1)CC1CNC[C@@H]2C1 (single isomer, unassigned; (-)) [Compound 152, (−)4-((N-methyl)aminomethyl)cytisine] .
807.0

With α4β2 nAChR (Homo sapiens (Human), UniProt P17787+P43681) as the test system, provide measured Ratio α3β4/α4β2 for this molecule: Cl.O=c1cc(C(F)(F)F)cc2n1CC1CNC[C@@H]2C1 (single isomer, unassigned; (-)) [Compound 77, (−)4-Trifluoromethylcytisine]
12.9

Tell me Ratio α3β4/α4β2 of NCc1cc2n(c(=O)c1)CC1CNC[C@@H]2C1 (single isomer, unassigned; (-)) [Compound 144, (−)4-(aminomethyl)cytisine] when tested on α4β2 nAChR (Homo sapiens (Human), UniProt P17787+P43681).
78.0

Name the value of Ratio α3β4/α4β2 reported for O=c1cc(O)cc2n1CC1CNC[C@@H]2C1 (single isomer, unassigned; (+)) [Compound 67, (+)4-Hydroxycytisine] when tested on α4β2 nAChR (Homo sapiens (Human), UniProt P17787+P43681).
397.8
